Measured GI50, listed per entry for reference.
test system: NCI/ADR-RES; assay: NCI tumour cell line growth inhibition, 48 h
Activity calls are given as the source filed them. No stated cut-off is given here; in the data, active = GI50 up to about 1.1 µM and inactive = higher.

| compound | GI50 |
| --- | --- |
| CCN1c2nc3ccccc3nc2N(CC)c2nc3ccccc3nc21 | 63.8 µM (inactive) |
| O=[N+]([O-])c1ccc(/N=N/N2CCCC2)cc1 | > 100 µM (inactive) |
| N=C(N)N/N=C/c1c(-c2ccc(Cl)c([N+](=O)[O-])c2)nc2sc(Cl)cn12 | 46 µM (inactive) |
| CC(Oc1ccc(Cl)cc1Cl)C(=O)NN1C(=O)CC(=O)N(c2ccccc2)C1=S (stereo unspecified) | 39.9 µM (inactive) |
| C=CCN1CCC(OC(=O)C(O)(C#CC)C2CCCC2)CC1 (stereo unspecified) | > 100 µM (inactive) |
| COc1ccc(-c2oc3ccccc3c(=O)c2O)cc1OC [3-HYDROXY-3',4'-DIMETHOXYFLAVONE] | 3.77 µM (inactive) |

----------
system: UO-31; assay: NCI tumour cell line growth inhibition, 48 h
The source made the active and inactive calls. No stated cut-off is given here; in the data, active = GI50 up to about 1.1 µM and inactive = higher.
Measured GI50, listed per entry for reference.
propertyMeasured: GI50

| compound | experimentalTarget | propertyMeasured | result |
| --- | --- | --- | --- |
| COC(=O)C1=C(C)NC(=S)NC1c1ccc(N(CCCl)CCCl)cc1Cl (stereo unspecified) | UO-31 | GI50 | 35.8 µM (inactive) |
| CC1=C(C)CC2C(=O)N(c3cc(C(C)(C)C)ccc3C(C)(C)C)C(=O)C2C1 (stereo unspecified) | UO-31 | GI50 | > 100 µM (inactive) |
| Cc1cn(CCCCC2=NCCCN2)c(=O)[nH]c1=O | UO-31 | GI50 | > 24.8 µM (inactive) |
| CC(C)COC(=O)N1N=NC2C3CC(=O)C(O3)C21 (stereo unspecified) | UO-31 | GI50 | > 100 µM (inactive) |
| N#CCN1CCOCCOCCN(CC#N)CCOCCOCC1 | UO-31 | GI50 | > 100 µM (inactive) |
| CCOc1cccc2[s+]snc12 | UO-31 | GI50 | 37.3 µM (inactive) |
| C=CCn1c(=O)ccn(/C(=C/C(=O)OCC)C(=O)OCC)c1=O | UO-31 | GI50 | 14.9 µM (inactive) |
| O=C1N[C@H]2c3c(Cl)sc(Cl)c3/C(=N/O)[C@H]2O1 | UO-31 | GI50 | > 100 µM (inactive) |
| CN1Cc2ccccc2S(=O)(=O)n2cccc2C1=O | UO-31 | GI50 | > 100 µM (inactive) |
| O=C1/C(=C/c2ccc(Cl)cc2)Sc2scc(-c3cccc([N+](=O)[O-])c3)[n+]21 | UO-31 | GI50 | 4.43 µM (inactive) |
| COC(=O)/C(=N\NC(=O)c1ccccc1O)C(C#N)c1ccccc1 (stereo unspecified) | UO-31 | GI50 | 12.9 µM (inactive) |

----------
tested on: NCI-H460; test: NCI tumour cell line growth inhibition, 48 h
The source made the active and inactive calls. Cut-off read from the data, not from the text of the source: active = GI50 up to about 1.1 µM and inactive = higher.
Classes used: active, inactive

| inputSmiles | group |
| --- | --- |
| Oc1cc(-c2cccc(F)c2)nc2cc3c(cc12)OCO3 | active |
| COc1ccc(N/N=C2\CCOc3ccc(C)cc3C2=O)cc1 | inactive |
| c1ccc([B-]2(c3ccccc3)OCCc3cccc[n+]32)cc1 | inactive |
| COc1cc(OC)c(OC)cc1/C=C/c1cc[n+](C)c2ccccc12 | inactive |
| Nc1c(-c2ccccc2[N+](=O)[O-])nc2ccccn12 | inactive |
| N=C(N)SCCN1CCCCC1 | inactive |

Source listed as ChEMBL document CHEMBL1201862.
